- assay.notes: Kinetic solubility of compound in PBS at pH 7.4 measured after 5 hrs by UV analysis
- Format: physicochemical
- condition.notes: read-out: Kinetic_solubility
Assign class by solubility kinetic at 5 h: not lower than 20 µM means 1; lower than 20 µM means 0.

# example entries with known answers
CCn1c(-c2cccnc2[C@H](C)OC)c2c3cc(ccc31)-c1csc(n1)C[C@H](NC(=O)C1CC1)C(=O)N1CCC[C@H](N1)C(=O)OCC(C)(C)C2	0
CCn1c(-c2cccnc2[C@H](C)OC)c2c3cc(ccc31)-c1csc(n1)C[C@H](NC(=O)[C@H]1[C@@H]3COC[C@@H]31)C(=O)N1CCC[C@H](N1)C(=O)OCC(C)(C)C2	0
CCn1c(-c2cccnc2[C@H](C)OC)c2c3cc(ccc31)-c1csc(n1)C[C@H](NC(=O)[C@H](C(C)C)N(C)C(=O)N1CC(OC)C1)C(=O)N1CCC[C@H](N1)C(=O)OCC(C)(C)C2	0
CCn1c(-c2cccnc2[C@H](C)OC)c2c3cc(ccc31)-c1csc(n1)C[C@H](NC(=O)[C@H]1CCO1)C(=O)N1CCC[C@H](N1)C(=O)OCC(C)(C)C2	0
CCn1c(-c2cc(N3CCN(C4COC4)CC3)cnc2[C@H](C)OC)c2c3cc(ccc31)-c1csc(n1)C[C@H](NC(=O)[C@H]1C[C@@H]1C)C(=O)N1CCC[C@H](N1)C(=O)OCC(C)(C)C2	1

Q: Does solubility kinetic at 5 h meet or surpass 20 µM for CCn1c(-c2cccnc2[C@H](C)OC)c2c3cc(ccc31)-c1csc(n1)C[C@H](NC(=O)[C@H](C(C)C)N(C)C(=O)N1CCC1)C(=O)N1CCC[C@H](N1)C(=O)OCC(C)(C)C2 ?
Ans: 0

Q: Decide: is the reported value of solubility kinetic at 5 h for CCn1c(-c2cccnc2[C@H](C)OC)c2c3cc(ccc31)-c1csc(n1)C[C@H](NC(=O)[C@H](C(C)C)N(C)C(=O)OC)C(=O)N1CCC[C@H](N1)C(=O)OCC(C)(C)C2 equal to or greater than 20 µM?
Ans: 0

Q: Please tell me: is the molecule CCn1c(-c2cc(N3CCN(CCOC)CC3)cnc2[C@H](C)OC)c2c3cc(ccc31)-c1csc(n1)C[C@H](NC(=O)[C@H]1C[C@@H]1C)C(=O)N1CCC[C@H](N1)C(=O)OCC(C)(C)C2 at or over 20 µM in terms of solubility kinetic at 5 h?
Ans: 1

Q: # check: solubility kinetic at 5 h of CCn1c(-c2cc(N3CC4CC(C3)N4C)cnc2[C@H](C)OC)c2c3cc(ccc31)-c1csc(n1)C[C@H](NC(=O)[C@H]1C[C@@H]1C)C(=O)N1CCC[C@H](N1)C(=O)OCC(C)(C)C2 is greater than or equal to 20 µM
Ans: 1

Q: Assess whether reported solubility kinetic at 5 h for CCn1c(-c2cccnc2[C@H](C)OC)c2c3cc(ccc31)-c1csc(n1)C[C@H](NC(=O)[C@H](C(C)C)N(C)C(=O)N(C)C)C(=O)N1CCC[C@H](N1)C(=O)OCC(C)(C)C2 sits at 20 µM or higher.
Ans: 1

Q: Check if solubility kinetic at 5 h >= 20 µM (inclusive). Item: CCn1c(-c2cccnc2[C@H](C)OC)c2c3cc(ccc31)-c1csc(n1)C[C@H](NC(=O)[C@H]1C[C@@H]1C)C(=O)N1CCC[C@H](N1)C(=O)OCC(C)(C)C2
Ans: 0

* * *

- assay.notes: Half-life in male Beagle dog at 5 mg/kg, po measured after 24 hrs by LC-MS/MS analysis
- Type: ADME, organism-based, Canis lupus familiaris
- condition.notes: in vivo
measure: half-life
Report field: quantity (unit follows the number).

Q: Give the measured half-life for CCn1c(-c2cc(N3CCN(C)CC3)cnc2[C@H](C)OC)c2c3cc(ccc31)-c1csc(n1)C[C@H](NC(=O)[C@H]1C[C@@H]1C)C(=O)N1CCC[C@H](N1)C(=O)OCC(C)(C)C2
Ans: 5.3 h

* * *

- assay.notes: Oral bioavailability in female BALB/c mouse plasma at 10 mg/kg measured after 24 hrs by LC-MS/MS analysis
- Format: ADME, organism-based
# bioavailability values compiled below
Value expressed in %; do not type the unit.

Below, each entry is followed by its recorded bioavailability result.
CCn1c(-c2cc(N3CCN(C4CC4)CC3)cnc2[C@H](C)OC)c2c3cc(ccc31)-c1csc(n1)C[C@H](NC(=O)[C@H]1[C@@H]3COC[C@@H]31)C(=O)N1CCC[C@H](N1)C(=O)OCC(C)(C)C2	88
CCn1c(-c2cc(N3CCN(CCOC)CC3)cnc2[C@H](C)OC)c2c3cc(ccc31)-c1csc(n1)C[C@H](NC(=O)[C@H]1C[C@@H]1C)C(=O)N1CCC[C@H](N1)C(=O)OCC(C)(C)C2	57
CCn1c(-c2cc(N3CCN(C4COC4)CC3)cnc2[C@H](C)OC)c2c3cc(ccc31)-c1csc(n1)C[C@H](NC(=O)[C@H]1C[C@@H]1C)C(=O)N1CCC[C@H](N1)C(=O)OCC(C)(C)C2	27

// switching to the query compound
Q: Give me measured bioavailability, please, for this compound: CCn1c(-c2cc(N3CCN(C)CC3)cnc2[C@H](C)OC)c2c3cc(ccc31)-c1csc(n1)C[C@H](NC(=O)[C@H]1C[C@@H]1C)C(=O)N1CCC[C@H](N1)C(=O)OCC(C)(C)C2
Ans: 52

* * *

- assay.notes: Half-life in male cynomolgus monkey at 10 mg/kg, po measured after 24 hrs by LC-MS/MS analysis
- Assay type: ADME, organism-based, Macaca fascicularis
- condition.notes: in vivo
measure: half-life (h)
Output spec: scalar in h, unitless text.

Q: Read off the recorded half-life for CCn1c(-c2cc(N3CCN(C)CC3)cnc2[C@H](C)OC)c2c3cc(ccc31)-c1csc(n1)C[C@H](NC(=O)[C@H]1C[C@@H]1C)C(=O)N1CCC[C@H](N1)C(=O)OCC(C)(C)C2
Ans: 4.6

* * *

Catalogue of clearance readings, one per entry.
- assay.notes: Clearance in female BALB/c mouse at 1 mg/kg, iv measured after 24 hrs by LC-MS/MS analysis
- Assay type: ADME, organism-based
- condition.notes: in vivo
Response body: numeric value in mL/min/kg, unit text excluded.

CCn1c(-c2cccnc2[C@H](C)OC)c2c3cc(ccc31)-c1csc(n1)C[C@H](NC(=O)[C@H](C(C)C)N(C)C(=O)N1CCC1)C(=O)N1CCC[C@H](N1)C(=O)OCC(C)(C)C2	65

Q: For CCn1c(-c2cccnc2[C@H](C)OC)c2c3cc(ccc31)-c1csc(n1)C[C@H](NC(=O)[C@H]1[C@@H]3COC[C@@H]31)C(=O)N1CCC[C@H](N1)C(=O)OCC(C)(C)C2 , write its clearance.
Ans: 6.67

Q: Output measured clearance for this item: CCn1c(-c2cccnc2[C@H](C)OC)c2c3cc(ccc31)-c1csc(n1)C[C@H](NC(=O)[C@H](C(C)C)N(C)C(=O)N(C)C)C(=O)N1CCC[C@H](N1)C(=O)OCC(C)(C)C2
Ans: 55

Q: Supply measured clearance of CCn1c(-c2cccnc2[C@H](C)OC)c2c3cc(ccc31)-c1csc(n1)C[C@H](NC(=O)C1CC1)C(=O)N1CCC[C@H](N1)C(=O)OCC(C)(C)C2 in your reply.
Ans: 5

Q: Report measured clearance; entry is CCn1c(-c2cccnc2[C@H](C)OC)c2c3cc(ccc31)-c1csc(n1)C[C@H](NC(=O)[C@H]1CCO1)C(=O)N1CCC[C@H](N1)C(=O)OCC(C)(C)C2
Ans: 3.33

* * *

# efflux ratio at 2 h, 5 µM per entry
- assay.notes: Efflux ratio of apparent permeability in human Caco-2 cells at 5 uM incubated for 2 hrs by LC-MS/MS analysis
- Type: ADME, cell-based
Just the number.

CCn1c(-c2cc(N3CCN(C)CC3)cnc2[C@H](C)OC)c2c3cc(ccc31)-c1csc(n1)C[C@H](NC(=O)[C@H]1[C@@H]3COC[C@@H]31)C(=O)N1CCC[C@H](N1)C(=O)OCC(C)(C)C2	43
CCn1c(-c2cccnc2[C@H](C)OC)c2c3cc(ccc31)-c1csc(n1)C[C@H](NC(=O)[C@H]1C[C@@H]1C)C(=O)N1CCC[C@H](N1)C(=O)OCC(C)(C)C2	1
CCn1c(-c2cc(N3CCN(C4CC4)CC3)cnc2[C@H](C)OC)c2c3cc(ccc31)-c1csc(n1)C[C@H](NC(=O)[C@H]1[C@@H]3COC[C@@H]31)C(=O)N1CCC[C@H](N1)C(=O)OCC(C)(C)C2	7
CCn1c(-c2cc(N3CCN(C)CC3)cnc2[C@H](C)OC)c2c3cc(ccc31)-c1csc(n1)C[C@H](NC(=O)[C@H]1CCO1)C(=O)N1CCC[C@H](N1)C(=O)OCC(C)(C)C2	62

Q: Give recorded efflux ratio at 2 h, 5 µM. CCn1c(-c2cccnc2[C@H](C)OC)c2c3cc(ccc31)-c1csc(n1)C[C@H](NC(=O)C1CC1)C(=O)N1CCC[C@H](N1)C(=O)OCC(C)(C)C2
Ans: 1.6

Q: Retrieve efflux ratio at 2 h, 5 µM measured for CCn1c(-c2cccnc2[C@H](C)OC)c2c3cc(ccc31)-c1csc(n1)C[C@H](NC(=O)[C@H](C(C)C)N(C)C(C)=O)C(=O)N1CCC[C@H](N1)C(=O)OCC(C)(C)C2 and print it.
Ans: 13.6

Q: Give a short answer stating reported efflux ratio at 2 h, 5 µM for CCn1c(-c2cccnc2[C@H](C)OC)c2c3cc(ccc31)-c1csc(n1)C[C@H](NC(=O)[C@H](C(C)C)N(C)C(=O)N(C)C)C(=O)N1CCC[C@H](N1)C(=O)OCC(C)(C)C2 .
Ans: 2.9

Q: Identify measured efflux ratio at 2 h, 5 µM associated with CCn1c(-c2cc(N3CCN(C)CC3)cnc2[C@H](C)OC)c2c3cc(ccc31)-c1csc(n1)C[C@H](NC(=O)[C@H]1C[C@@H]1C)C(=O)N1CCC[C@H](N1)C(=O)OCC(C)(C)C2
Ans: 21

Q: Write down efflux ratio at 2 h, 5 µM measured for item CCn1c(-c2cccnc2[C@H](C)OC)c2c3cc(ccc31)-c1csc(n1)C[C@H](NC(=O)[C@H]1[C@@H]3COC[C@@H]31)C(=O)N1CCC[C@H](N1)C(=O)OCC(C)(C)C2
Ans: 7.5

Q: Please give the documented efflux ratio at 2 h, 5 µM of CCn1c(-c2cc(N3CCN(CCOC)CC3)cnc2[C@H](C)OC)c2c3cc(ccc31)-c1csc(n1)C[C@H](NC(=O)[C@H]1C[C@@H]1C)C(=O)N1CCC[C@H](N1)C(=O)OCC(C)(C)C2
Ans: 9

Q: Provide efflux ratio at 2 h, 5 µM value for the following molecule: CCn1c(-c2cccnc2[C@H](C)OC)c2c3cc(ccc31)-c1csc(n1)C[C@H](NC(=O)[C@H]1CCO1)C(=O)N1CCC[C@H](N1)C(=O)OCC(C)(C)C2
Ans: 1.7
